src = patent US20090048203A1

biological target: S. pneumoniae LigA (Streptococcus pneumoniae serotype 4, UniProt Q97QT2); test: DNA ligase inhibition, FRET detection assay; format: biochemical; settings: ten compound concentrations; read-out: IC50 (μM) against S. pneumoniae LigA
Sequence (Q97QT2 whole entry): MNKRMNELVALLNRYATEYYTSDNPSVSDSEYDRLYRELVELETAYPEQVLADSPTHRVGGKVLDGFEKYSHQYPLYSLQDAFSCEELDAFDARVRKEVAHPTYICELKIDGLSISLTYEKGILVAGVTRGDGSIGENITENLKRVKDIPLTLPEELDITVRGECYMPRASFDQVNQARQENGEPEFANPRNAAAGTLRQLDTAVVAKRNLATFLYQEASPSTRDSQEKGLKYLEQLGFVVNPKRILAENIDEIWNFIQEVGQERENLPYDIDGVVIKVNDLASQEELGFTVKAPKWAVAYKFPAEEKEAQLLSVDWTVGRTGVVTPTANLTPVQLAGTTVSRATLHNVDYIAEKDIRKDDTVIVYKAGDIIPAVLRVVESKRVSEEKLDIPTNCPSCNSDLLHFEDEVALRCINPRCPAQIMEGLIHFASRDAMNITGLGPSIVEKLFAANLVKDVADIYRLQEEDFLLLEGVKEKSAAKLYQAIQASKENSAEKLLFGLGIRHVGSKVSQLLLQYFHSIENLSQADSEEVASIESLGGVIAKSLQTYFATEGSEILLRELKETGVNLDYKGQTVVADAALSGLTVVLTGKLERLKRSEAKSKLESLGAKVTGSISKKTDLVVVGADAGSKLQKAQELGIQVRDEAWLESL
outcome-measure: IC50 (µM)

>  <compound>
Nc1nc(OC2CCCC2)nc2c1ncn2C1OCCC1N (centres unmarked)

>  <units>
µM

>  <reported>
0.7

$$$$

P: Nc1nc(OCc2ccccc2)nc2c1ncn2C1CCCO1 (centres unmarked)
Q: Nc1nc(SCc2ccco2)nc2c1ncn2C1CCCO1 (centres unmarked)
R: C=C[C@H]1O[C@@H](n2cnc3c(N)nc(OC4CCCC4)nc32)[C@H](O)[C@@H]1O
S: Nc1nc(OCC2CCCC2)nc2c1ncn2[C@@H]1O[C@H](CO)[C@@H](O)[C@H]1O
Exam item: Task field, ranking: reported IC50, descending order. Sort and list the labels as requested.
Marked response: P, Q, R, S
